# Tested on: murine E^k MHC class II allele
# test.protocol: simultaneous assay, E^k allele (CH27 APC, TPc9.1 T hybridoma, THMCC82-103 or PGCC81-104)
# Type: cell-based
# measurement.context: Table 10; AE peptide 64 μM; supernatant 1:4 (second value)
// classify: if (Times Baseline Response, E^k < 40) Condition met else Condition not met

# substance, class
measured = [
    ("Ac-ARMKLPKSAK-NH2 [AE120]", "Condition met"),
    ("Ac-YAMKLPKSAK-NH2 [AE121]", "Condition met"),
    ("Ac-YRAKLPKSAK-NH2 [AE122]", "Condition not met"),
    ("Ac-YRMKLPASAK-NH2 [AE126]", "Condition not met"),
    ("Ac-YRMKLPKSAA-NH2 [AE128]", "Condition not met"),
    ("Ac-YRMALPKSAK-NH2 [AE123]", "Condition not met"),
    ("Ac-YRMKAPKSAK-NH2 [AE124]", "Condition not met"),
    ("Ac-YRMKLPKAAK-NH2 [AE127]", "Condition not met"),
    ("Ac-YRMKLPKSAK-NH2 [AE109]", "Condition not met"),
    ("Ac-YRMKLAKSAK-NH2 [AE125]", "Condition met"),
]

====

# target: murine E^d MHC class II allele (Mus musculus, UniProt P01904+P01915)
# Sequence (P01904 26-255): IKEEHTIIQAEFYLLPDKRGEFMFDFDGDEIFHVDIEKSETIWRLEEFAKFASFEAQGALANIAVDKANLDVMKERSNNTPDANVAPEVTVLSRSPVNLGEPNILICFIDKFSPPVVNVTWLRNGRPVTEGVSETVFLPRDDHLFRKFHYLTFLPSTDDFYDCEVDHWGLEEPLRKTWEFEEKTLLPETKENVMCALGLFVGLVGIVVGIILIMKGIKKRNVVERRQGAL
# Sequence (P01915 27-264 limits assumed): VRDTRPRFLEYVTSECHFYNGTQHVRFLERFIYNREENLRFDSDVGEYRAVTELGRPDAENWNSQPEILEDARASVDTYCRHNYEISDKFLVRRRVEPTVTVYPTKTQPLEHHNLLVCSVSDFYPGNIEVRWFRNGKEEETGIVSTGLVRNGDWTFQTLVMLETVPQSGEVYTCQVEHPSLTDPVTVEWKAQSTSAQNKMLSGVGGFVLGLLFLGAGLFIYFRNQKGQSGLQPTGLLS
# test.protocol: processed antigen assay, E^d allele (APC pulsed with native HEL)
# Type: cell-based
# Set-up: The A20 and CH27 B cell lymphoma lines express H-2^d and H-2^k alleles, respectively; endogenous in cells; host or cells: A20 B cell lymphoma (mitomycin C-treated or paraformaldehyde-fixed)
# measurement.context: Table 30; native HEL prepulse 10 μM; AE peptide 64 μM; supernatant dilution 1:8
# reported T cell response relative to baseline (None = 1.0), E^d; entries follow
property.name: T cell response relative to baseline (None = 1.0), E^d

# substance, target, reading
records = [
    ("Ac-LRMK Y PK-NH2 (Ac-LRMKYPK-NH2; not fully specified; printed as Ac-LRMK Y PK-NH2) [AE235]", "murine E^d MHC class II allele (Mus musculus, UniProt P01904+P01915)", 0.19),
    ("Ac-LRLKYPk-NH2 [AE307]", "murine E^d MHC class II allele (Mus musculus, UniProt P01904+P01915)", 0.48),
    ("Ac-LRMKLPK-NH2 [AE114]", "murine E^d MHC class II allele (Mus musculus, UniProt P01904+P01915)", 0.22),
    ("Ac- (mL) RMKLPK-NH2 [AE174]", "murine E^d MHC class II allele (Mus musculus, UniProt P01904+P01915)", 0.86),
    ("Ac-LRLKWPK-NH2 [AE309]", "murine E^d MHC class II allele (Mus musculus, UniProt P01904+P01915)", 0.29),
    ("Ac-LRLKYPK-NH2 [AE301]", "murine E^d MHC class II allele (Mus musculus, UniProt P01904+P01915)", 0.19),
    ("Ac-LRMKLP k-NH2 [AE166]", "murine E^d MHC class II allele (Mus musculus, UniProt P01904+P01915)", 0.36),
    ("Ac-LR L KLPK-NH2 (Ac-LRLKLPK-NH2; not fully specified; printed as Ac-LR L KLPK-NH2) [AE206]", "murine E^d MHC class II allele (Mus musculus, UniProt P01904+P01915)", 0.22),
]
